experiment: protein stability index of a GFP-peptide fusion (yeast GPS) (PSI 1-4); higher = more stable; sorted into four equal gates, so the index is relative within each strain; conditions: pdr5∆
quantityKind: protein stability index
Enter the number alone.

Field: example entries. Status: answers known.
| sequenceContent | protein stability index |
| --- | --- |
| TPPVVVVGVVGYVETPR [RPL3] | 2.33 |
| DDVTCDKLSVSEISDGK [SIN4] | 3.11 |
| VYDIMALEDEERDEILT [BRR2] | 3.28 |
| VLEKKTRQASDLASSKE [RPN5] | 3.41 |

query: Please list protein stability index recorded for the sequence GKEFGTTPEKPEETPLE [FAS2]
result: 2.7

query: Given the sequence YDSRGVGEMKLLKKKDD [YLR335W/NUP2] , write its reported protein stability index.
result: 2.64

query: Report measured protein stability index; entry is QILENYNALFQQNIKFR [YJL039C/NUP192]
result: 2.79

query: Quick one: give measured protein stability index for SSEFVSQDTKVICSVTG [RRP46]
result: 2.37

query: Look up protein stability index of LVFILAVVGNNMLLDPA [RRP42] and report it.
result: 1.39

query: Answer with the recorded protein stability index for the sequence listed here: DQFHRDTISAITHQLNN [RPC25]
result: 2.12

query: Please report protein stability index for the following sequence: SHTQNIGHLIKTRFKGS [SMC2]
result: 1.98

query: Dear colleague, please send me the reported protein stability index for NLCGDISLEALNFYITN [SIR3] when you can.
result: 2.73

query: Return protein stability index for the following sequence: KRRKTHIHKHVKDEAFD [RET1]
result: 3.23

query: For RSTDRDRVKVIECFKPG [CSL4] , write its protein stability index.
result: 3.1

query: Fill in reported protein stability index for this entry: IDKNHGFERLTVNEPQM [SRB7]
result: 3.25

query: Give recorded protein stability index. GEIEIKPNEEEELGFWD [RPN13]
result: 3.19

query: Output measured protein stability index for this item: DETTVPSYYYYVDPETT [ROX3]
result: 3.04

Reference for the values: the supplement of paper PMC9732359
